- System: Purkinje fiber
- test protocol: Purkinje fiber assay: reducing the Purkinje fiber action potential duration
- Type: cell-based
- run parameters: reducing canine Purkinje fiber action potential duration in vitro; ±SEM
pEC50: −log10 of the molar value.
reported property: pEC50

compound | measured value
CC(NC(=NC#N)Nc1ccncc1)C(C)(C)C (single isomer, unassigned; (+)) [(+)-Pinacidil] | 4.26

P = CC(NC(=NC#N)Nc1cccnc1)C(C)(C)C (single isomer, unassigned; (-)) [(-)-N"-cyano-N-3-pyridyl-N'-1,2,2-trimethylpropylguanidine]
Q = CC(NC(=NC#N)Nc1ccncc1)C(C)(C)C (single isomer, unassigned; (-)) [(-)-Pinacidil]
R = CC(NC(=NC#N)Nc1cccnc1)C(C)(C)C (single isomer, unassigned; (+)) [(+)-N"-cyano-N-3-pyridyl-N'-1,2,2-trimethylpropylguanidine]
Number of compounds to sort: 3. Sort criterion: pEC50, ascending. Give the labels in the order specified.
R, Q, P
(R: 4.64, Q: 5.49, P: 6.37)
